# targetOrSystem: UniProt Q5JUK3
# experimentSummary: Tl+ flux assay in HEK-293 cells stably expressing WT human SLACK
# Type: cell-based
# assaySetup: CRC; IC50 for compounds of mode Inh (also cells printed Inactive)
assayMetric: IC50 / EC50

Need IC50 / EC50, item CCOc1ccccc1S(=O)(=O)N1CC(c2nc(-c3ccc(C)cc3)no2)C1 [Compound 52] Inactive

Need IC50 / EC50, item CCOc1ccccc1S(=O)(=O)N1CC(c2nc(-c3ccsc3)no2)C1 [Compound 5] 2.1 µM

Need IC50 / EC50, item CCOc1ccccc1S(=O)(=O)c1ccc(-c2nc(-c3ccc(F)cc3)no2)cc1 [Compound 77] Inactive

Need IC50 / EC50, item CCOc1ccccc1S(=O)(=O)C1CN(c2nc(-c3ccc(F)cc3)no2)C1 [Compound 71] >10 µM

====

# targetOrSystem: WT human SLACK (Homo sapiens)
# experimentSummary: Tl+ flux assay in HEK-293 cells stably expressing WT human SLACK
# Assay type: cell-based
# assaySetup: CRC; EC50 for compounds of mode Act
Parameter IC50 / EC50: see the listing below.

// worked examples, IC50 / EC50 included
Need IC50 / EC50, item `CCOc1ccccc1S(=O)(=O)N1CC(c2nc(-c3ccccc3C(F)(F)F)no2)C1` 1.9 µM

Need IC50 / EC50, item `CCOc1ccccc1S(=O)(=O)N1CC(c2nnc(-c3ccc(F)cc3)o2)C1` >10 µM

***
Need IC50 / EC50, item `CCOc1ccccc1CN1CC(c2nc(-c3ccsc3)no2)C1` >10 µM

====

# targetOrSystem: WT human SLACK (Homo sapiens, UniProt Q5JUK3)
# Sequence (Q5JUK3 1-1235 isoform Q5JUK3-3): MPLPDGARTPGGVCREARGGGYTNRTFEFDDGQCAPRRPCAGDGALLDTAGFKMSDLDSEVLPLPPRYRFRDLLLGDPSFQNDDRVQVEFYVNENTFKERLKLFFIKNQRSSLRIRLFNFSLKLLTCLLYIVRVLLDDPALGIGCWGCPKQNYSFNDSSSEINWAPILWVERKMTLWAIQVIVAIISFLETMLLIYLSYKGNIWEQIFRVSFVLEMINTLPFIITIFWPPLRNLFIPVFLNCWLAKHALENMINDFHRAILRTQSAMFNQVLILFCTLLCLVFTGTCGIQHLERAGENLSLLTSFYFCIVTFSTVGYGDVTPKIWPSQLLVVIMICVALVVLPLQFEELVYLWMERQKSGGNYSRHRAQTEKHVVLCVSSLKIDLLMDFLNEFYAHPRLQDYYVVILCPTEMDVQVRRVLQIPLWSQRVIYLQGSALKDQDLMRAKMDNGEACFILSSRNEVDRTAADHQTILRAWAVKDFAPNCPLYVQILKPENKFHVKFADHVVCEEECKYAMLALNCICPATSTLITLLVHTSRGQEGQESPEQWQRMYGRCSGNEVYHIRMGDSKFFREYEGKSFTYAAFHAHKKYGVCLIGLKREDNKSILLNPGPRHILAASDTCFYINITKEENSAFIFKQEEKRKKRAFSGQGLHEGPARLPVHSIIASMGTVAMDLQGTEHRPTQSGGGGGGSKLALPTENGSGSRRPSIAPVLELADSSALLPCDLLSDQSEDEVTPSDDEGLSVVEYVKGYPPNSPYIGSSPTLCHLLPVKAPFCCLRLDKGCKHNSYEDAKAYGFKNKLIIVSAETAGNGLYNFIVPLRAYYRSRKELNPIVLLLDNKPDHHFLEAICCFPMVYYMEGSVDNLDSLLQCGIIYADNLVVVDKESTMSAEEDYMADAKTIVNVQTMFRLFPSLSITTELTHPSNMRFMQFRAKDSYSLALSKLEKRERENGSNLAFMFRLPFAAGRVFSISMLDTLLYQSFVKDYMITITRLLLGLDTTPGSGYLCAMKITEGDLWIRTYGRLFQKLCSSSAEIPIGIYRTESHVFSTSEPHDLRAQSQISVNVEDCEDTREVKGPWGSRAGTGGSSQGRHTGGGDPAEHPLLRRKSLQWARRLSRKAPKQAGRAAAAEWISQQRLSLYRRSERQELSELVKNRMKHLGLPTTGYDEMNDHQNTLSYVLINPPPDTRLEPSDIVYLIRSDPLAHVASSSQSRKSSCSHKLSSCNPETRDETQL
# experimentSummary: Tl+ flux assay in HEK-293 cells stably expressing WT human SLACK
# Assay type: cell-based
# assaySetup: CRC; EC50 for compounds of mode Act
assayMetric: IC50 / EC50

// worked examples, IC50 / EC50 included
Need IC50 / EC50, item O=S(=O)(c1cccn2ncnc12)N1CC(c2nc(-c3ccc(F)cc3)no2)C1 [Compound 129] >10 µM

Need IC50 / EC50, item CCOc1ccccc1S(=O)(=O)N1CC(c2nc(-c3cccc(OC)c3)no2)C1 [Compound 54] >10 µM

Need IC50 / EC50, item CCOc1ccccc1S(=O)(=O)N1CC(c2nnc(-c3ccc(F)cc3)[nH]2)C1 [Compound 86] >10 µM

Need IC50 / EC50, item O=S(=O)(c1ccccc1Cl)N1CC(c2nc(-c3ccsc3)no2)C1 [Compound 14] 7.5 µM

Then there is this molecule:
Need IC50 / EC50, item CCOc1ccccc1NC(=O)N1CC(c2nc(-c3ccsc3)no2)C1 [Compound 35] >10 µM

====

# targetOrSystem: UniProt:Q5JUK3
# experimentSummary: Tl+ flux assay in HEK-293 cells stably expressing WT human SLACK
# Assay type: cell-based
# assaySetup: CRC; EC50 for compounds of mode Act
Parameter IC50 / EC50: see the listing below.

// worked examples, IC50 / EC50 included
Under UniProt:Q5JUK3: IC50 / EC50 value of `CCOc1ccccc1S(=O)(=O)N1CC(c2nc(-c3ccccc3C)no2)C1` ? >10 µM

Under UniProt:Q5JUK3: IC50 / EC50 value of `O=S(=O)(c1ccccc1C(F)(F)F)N1CC(c2nc(-c3ccsc3)no2)C1` ? 6.0 µM

Under UniProt:Q5JUK3: IC50 / EC50 value of `O=S(=O)(c1cccn2ccnc12)N1CC(c2nc(-c3ccc(F)cc3)no2)C1` ? >10 µM

Then there is this compound:
Under UniProt:Q5JUK3: IC50 / EC50 value of `Cc1nc2c(S(=O)(=O)N3CC(c4nc(-c5ccc(F)cc5)no4)C3)cccn2n1` ? >10 µM

src = paper PMC10842602
